Recorded amyloid nucleation score, one value per entry.
Test: amyloid nucleation score (Sup35N fusion, yeast selection) (log enrichment); library NNK1; higher = more nucleation; inactive = no reads after selection;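 note: zero at mode of non-aggregating sequences after 7 days selection at 30°C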
Keep it simple and answer with nothing but the number.

Ask | Form field: reported amyloid nucleation score of SMRIFMMLQWYRGSNLCFFH
Reply | 0.537

Ask | Form field: reported amyloid nucleation score of VGPAANHIGHIVRWCRPGGP
Reply | 0.33

Ask | Form field: reported amyloid nucleation score of LYIMGRLDFIFRWVTGGFDT
Reply | -0.838

###

Experiment: amyloid nucleation score (Sup35N fusion, yeast selection) (log enrichment); library NNK1; higher = more nucleation; inactive = no reads after selection
Recorded amyloid nucleation score, one value per entry.
Keep it simple and answer with nothing but the number.

Ask | Form field: reported amyloid nucleation score of KCYIVSLNNVGCFTNASS
Reply | 5.13
